// data source = paper PMC4498709

- Tested on: ctMex67 LRR-NTF2L (RRM deletion);ctMtr2 (Chaetomium thermophilum;Chaetomium thermophilum)
- Method Notes: fluorescence anisotropy
- Study Conditions: 20 mM Tris-HCl pH 8.0, 50 mM NaCl, 10 nM DY-547-labelled RNA, serially diluted protein; temperature not stated
Metric: Kd (µM)
Numbers only, in µM.

Measured Kd, AAAAAAAAAAAAAAA [polyA15] : 6.8

====

- System: ctMex67 deltaUBA (deltaN deltaUBA);ctMtr2 (Chaetomium thermophilum;Chaetomium thermophilum)
- Method Notes: fluorescence anisotropy
- Study Conditions: 20 mM Tris-HCl pH 8.0, 50 mM NaCl, 10 nM DY-547-labelled RNA, serially diluted protein; temperature not stated
Metric: Kd (nM)
Answers are plain numbers, in nM.

Reported Kd for AAAAAAAAAAAAAAA [polyA15] was 370
